Measured values drawn from paper PMC7198766 for this set.

- Tested on: ligated 6th instar Indian stick insects (Carausius morosus)
- assayProcedure: Carbohydrate-mobilization (hypertrehalosemic) in vivo assay
- measurementSetup: before injection (0 min), 2 h after neck ligation; group later given 20 pmol peptide in 10 μl; 6th instar nymphs
Answer f if Hemolymph carbohydrates, 0 min is under 10 mg/mL, and t if it is 10 mg/mL or more.

Here's what some known entries look like.
| substance | qualitativeLabel |
| --- | --- |
| pGlu-Ala-Thr-Phe-Thr-Pro-Asn-Trp-Gly-Thr amide [Ala^2-Carmo-HrTH-II] | t |
| pGlu-Leu-Asn-Phe-Thr-Pro-Asn-Trp-Gly-Ser amide [Phymo-AKH, naturally-occurring AKH decapeptide bioanalog, reference compound] | f |
| pGlu-Leu-Thr-Ala-Thr-Pro-Asn-Trp-Gly-Thr amide [Ala^4-Carmo-HrTH-II] | f |

Now take the following substance into account.
# input In plain terms: is recorded Hemolymph carbohydrates, 0 min at least 10 mg/mL for pGlu-Leu-Thr-Phe-Thr-Pro-Asn-Trp-Gly-Thr amide [Carmo-HrTH-II, reference compound] ?
# output f
